Where do the numbers come from? From patent US20260317324A1.

Reported DC50 values for a set of compounds
- experimental target: BRAF G466V (Homo sapiens, UniProt P15056, G466V)
- Construct: Horizon Discovery (HCT-116 BRAF−/− cells); host or cells: HCT-116 BRAF−/− cells, clone 8, lentiviral transduction
- Sequence (P15056 whole entry G466V): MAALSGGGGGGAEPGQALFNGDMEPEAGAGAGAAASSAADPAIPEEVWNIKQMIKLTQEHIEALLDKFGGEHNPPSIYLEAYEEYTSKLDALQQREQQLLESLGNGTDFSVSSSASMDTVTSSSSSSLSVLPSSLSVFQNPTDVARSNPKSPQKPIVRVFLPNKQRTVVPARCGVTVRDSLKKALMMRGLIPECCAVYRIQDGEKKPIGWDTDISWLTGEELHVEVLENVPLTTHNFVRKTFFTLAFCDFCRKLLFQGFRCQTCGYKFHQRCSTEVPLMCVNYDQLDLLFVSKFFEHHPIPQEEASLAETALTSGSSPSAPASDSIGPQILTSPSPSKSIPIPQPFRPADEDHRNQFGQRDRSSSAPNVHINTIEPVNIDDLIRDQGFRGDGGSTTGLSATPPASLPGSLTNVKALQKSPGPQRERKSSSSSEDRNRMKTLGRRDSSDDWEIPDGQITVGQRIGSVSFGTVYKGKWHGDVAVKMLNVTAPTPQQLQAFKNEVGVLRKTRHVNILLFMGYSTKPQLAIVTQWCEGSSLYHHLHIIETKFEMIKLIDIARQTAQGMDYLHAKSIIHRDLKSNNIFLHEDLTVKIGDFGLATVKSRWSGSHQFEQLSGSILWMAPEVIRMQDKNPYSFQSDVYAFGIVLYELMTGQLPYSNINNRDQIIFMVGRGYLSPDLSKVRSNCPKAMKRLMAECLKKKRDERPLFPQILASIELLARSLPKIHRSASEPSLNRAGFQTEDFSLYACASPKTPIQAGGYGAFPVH
- method summary: BRAF HiBiT degradation assay, C-terminal HiBiT-tagged BRAF G466V overexpressed in HCT-116 BRAF−/− cells (clone 8), Nano-Glo HiBiT Lytic assay
- Format: cell-based
- test context: BRAF G466V (Class 3), HCT-116 BRAF−/− cells; DC50 at 50% degradation

Would you please look over these solved cases?
# compound, experimental target, DC50
records = [
    ("O=C1CCN(c2ccc(N3CCC(CN4CCN(c5ccc(-n6cc(-c7cc(Cl)cc(NS(=O)(=O)N8CC[C@@H](F)C8)c7F)c(-c7ccncc7)n6)cc5)CC4)CC3)nc2)C(=O)N1", "BRAF G466V (Homo sapiens, UniProt P15056, G466V)", "< 10 nM"),
    ("O=C1CCN(c2ccc(N3CCC(CN4CCN(c5ccc(-n6cc(-c7cc(Cl)cc(NS(=O)(=O)N8CCCC8)c7F)c(-c7ccncc7)n6)cc5F)CC4)CC3)cc2)C(=O)N1", "BRAF G466V (Homo sapiens, UniProt P15056, G466V)", "< 10 nM"),
    ("O=C1CC[C@H](c2ccc(N3CCC(CN4CCN(c5ccc(-n6cc(-c7cc(Cl)cc(NS(=O)(=O)N8CCCC8)c7F)c(-c7ccncc7)n6)cc5)CC4)CC3)cc2)C(=O)N1", "BRAF G466V (Homo sapiens, UniProt P15056, G466V)", "< 10 nM"),
    ("O=C1CC[C@H](c2ccc(N3CCC(CN4CCN(c5ccc(-n6cc(-c7cc(Cl)cc(NS(=O)(=O)C8CCCC8)c7F)c(-c7ccncc7)n6)cc5)CC4)CC3)cc2)C(=O)N1", "BRAF G466V (Homo sapiens, UniProt P15056, G466V)", "10 to 50 nM"),
    ("O=C1CC[C@H](c2ccc(N3CCC(CN4CCN(c5ccc(-n6cc(-c7cc(Cl)cc(NS(=O)(=O)N8CCCC8)c7F)c(-c7ccncc7)n6)cc5)CC4)CC3)nc2)C(=O)N1", "BRAF G466V (Homo sapiens, UniProt P15056, G466V)", "< 10 nM"),
    ("O=C1CCN(c2ccc(N3CCC(CN4CCN(c5ccc(-n6cc(-c7cc(Cl)cc(NS(=O)(=O)N8CC[C@@H](F)C8)c7F)c(-c7ccncc7)n6)cc5)CC4)CC3)cc2)C(=O)N1", "BRAF G466V (Homo sapiens, UniProt P15056, G466V)", "< 10 nM"),
    ("CCC(C)S(=O)(=O)Nc1cc(Cl)cc(-c2cn(-c3ccc(N4CCN(CC5CCN(c6ccc([C@H]7CCC(=O)NC7=O)cn6)CC5)CC4)cc3)nc2-c2ccncc2)c1F (mixture of isomers)", "BRAF G466V (Homo sapiens, UniProt P15056, G466V)", "< 10 nM"),
    ("O=C1CCN(c2ccc(N3CCC(CN4CCN(c5ccc(-n6cc(-c7cc(C(F)F)cc(NS(=O)(=O)N8CCCC8)c7F)c(-c7ccncc7)n6)c(F)c5)CC4)CC3)cc2)C(=O)N1", "BRAF G466V (Homo sapiens, UniProt P15056, G466V)", "10 to 50 nM"),
]

Query string: Any idea what DC50 was measured for O=C1CCC(c2ccc(N3CCC(CN4CCN(c5ccc(-n6cc(-c7cc(Cl)cc(NS(=O)(=O)N8CCCC8)c7F)c(-c7ccncc7)n6)cc5)CC4)CC3)c(F)c2)C(=O)N1 (racemic) ?
Result string: < 10 nM

Query string: Follow-up item: O=C1CCC(c2ccc(N3CCC(CN4CCN(c5ccc(-n6cc(-c7cc(Cl)cc(NS(=O)(=O)N8CCCC8)c7F)c(-c7ccncc7)n6)cc5)CC4)CC3)nc2)C(=O)N1 (racemic)
Result string: < 10 nM

* * *

- experimental target: BRAF D594G (Homo sapiens, UniProt P15056, D594G)
- Construct: Horizon Discovery (HCT-116 BRAF−/− cells); host or cells: HCT-116 BRAF−/− cells, clone 63, lentiviral transduction
- Sequence (P15056 whole entry D594G): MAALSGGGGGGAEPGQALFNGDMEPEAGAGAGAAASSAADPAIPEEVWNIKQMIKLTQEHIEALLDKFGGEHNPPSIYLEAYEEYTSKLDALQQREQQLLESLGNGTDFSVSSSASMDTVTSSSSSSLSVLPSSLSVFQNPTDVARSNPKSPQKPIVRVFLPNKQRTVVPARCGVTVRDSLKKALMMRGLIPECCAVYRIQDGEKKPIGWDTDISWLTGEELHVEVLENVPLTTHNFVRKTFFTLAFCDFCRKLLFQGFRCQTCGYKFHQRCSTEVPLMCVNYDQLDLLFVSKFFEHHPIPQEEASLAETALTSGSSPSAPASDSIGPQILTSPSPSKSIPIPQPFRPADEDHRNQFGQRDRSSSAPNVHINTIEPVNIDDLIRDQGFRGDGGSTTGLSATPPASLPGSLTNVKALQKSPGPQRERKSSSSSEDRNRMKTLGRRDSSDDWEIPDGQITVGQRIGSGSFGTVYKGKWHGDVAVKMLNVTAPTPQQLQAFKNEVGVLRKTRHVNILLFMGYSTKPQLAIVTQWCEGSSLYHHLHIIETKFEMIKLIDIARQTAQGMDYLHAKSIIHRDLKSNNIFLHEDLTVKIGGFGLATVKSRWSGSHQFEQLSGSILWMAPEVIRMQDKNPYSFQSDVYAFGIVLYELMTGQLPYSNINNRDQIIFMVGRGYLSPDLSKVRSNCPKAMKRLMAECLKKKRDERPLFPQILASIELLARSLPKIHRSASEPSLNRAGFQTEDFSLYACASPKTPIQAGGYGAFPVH
- method summary: BRAF HiBiT degradation assay, C-terminal HiBiT-tagged BRAF D594G overexpressed in HCT-116 BRAF−/− cells (clone 63), Nano-Glo HiBiT Lytic assay
- Type: cell-based
- test context: BRAF D594G; DC50 at 50%: fitted conc. at Y=50
measurement type: DC50

# compound, experimental target, DC50
data = [
    ("CCCS(=O)(=O)Nc1cccc(-c2nc(C(C)(C)C)sc2-c2ccnc(Nc3ccc4c(c3)CCN(CC3CCN(c5ccc6c(=O)n(C7CCC(=O)NC7=O)ccc6c5)CC3)C4)n2)c1F (racemic)", "BRAF D594G (Homo sapiens, UniProt P15056, D594G)", "> 500 nM"),
]

Query string: What measured DC50 is associated with CCCS(=O)(=O)Nc1cccc(-c2nc(C3CCN(C(=O)C4CCN(C(=O)C5CCN(c6ccc(C7CCC(=O)NC7=O)cn6)CC5)CC4)CC3)sc2-c2ccnc(NC(C)C)n2)c1F (racemic) on BRAF D594G (Homo sapiens, UniProt P15056, D594G)?
Result string: < 10 nM

Query string: Follow-up item: "CCCS(=O)(=O)Nc1cccc(-c2nc(-c3ccc(N4CCN(CC5CCN(c6ccc([C@@H]7CCC(=O)NC7=O)cc6)CC5)CC4)cc3)sc2-c2ccnc(N)n2)c1F"
Result string: > 500 nM

Query string: Follow-up item: CCCS(=O)(=O)Nc1cccc(-c2nc(C3CCN(C(=O)C4(C)CCN(C(=O)C5CCN(c6ccc(C7CCC(=O)NC7=O)cn6)CC5)CC4)CC3)sc2-c2ccnc(N)n2)c1F (racemic)
Result string: < 10 nM

Query string: Follow-up item: CCCS(=O)(=O)Nc1cccc(-c2nc(C(C)(C)C)sc2-c2ccnc(Nc3ccc(N4CCN(CC5CCN(c6ccc(C7CCC(=O)NC7=O)cn6)CC5)CC4)cc3)n2)c1F (racemic)
Result string: 10 to 50 nM

* * *

- experimental target: BRAF D594G (Homo sapiens, UniProt P15056, D594G)
- Construct: Horizon Discovery (HCT-116 BRAF−/− cells); host or cells: HCT-116 BRAF−/− cells, clone 63, lentiviral transduction
- method summary: BRAF HiBiT degradation assay, C-terminal HiBiT-tagged BRAF D594G overexpressed in HCT-116 BRAF−/− cells (clone 63), Nano-Glo HiBiT Lytic assay
- Format: cell-based
- test context: BRAF D594G (Class 3), HCT-116 BRAF−/− cells; observed Dmax relative to DMSO control
measurement type: Dmax

# smiles record, experimental target, result
data = [
    ("O=C1CCN(c2ccc(N3CCC(CN4CCN(c5ccc(-n6cc(-c7cc(F)cc(NS(=O)(=O)N8CCCC8)c7F)c(-c7ccncc7)n6)cc5)CC4)CC3)cc2)C(=O)N1", "BRAF D594G (Homo sapiens, UniProt P15056, D594G)", "30 to 70%"),
    ("CCN(C)S(=O)(=O)Nc1cc(Cl)cc(-c2cn(-c3ccc(N4CCN(CC5CCN(c6ccc(N7CCC(=O)NC7=O)cc6)CC5)CC4)cn3)nc2-c2ccncc2)c1F", "BRAF D594G (Homo sapiens, UniProt P15056, D594G)", "30 to 70%"),
]

Continue with the molecule presented below.
Query string: Any idea what Dmax was measured for "O=C1CC[C@H](c2ccc(N3CCC(CN4CCN(c5ccc(-n6cc(-c7cc(C(F)F)cc(NS(=O)(=O)N8CCCC8)c7F)c(-c7ccncc7)n6)cc5)CC4)CC3)cc2)C(=O)N1" ?
Result string: > 70%

* * *

- experimental target: BRAF D594G (Homo sapiens, UniProt P15056, D594G)
- Construct: Horizon Discovery (HCT-116 BRAF−/− cells); host or cells: HCT-116 BRAF−/− cells, clone 63, lentiviral transduction
- method summary: BRAF HiBiT degradation assay, C-terminal HiBiT-tagged BRAF D594G overexpressed in HCT-116 BRAF−/− cells (clone 63), Nano-Glo HiBiT Lytic assay
- Format: cell-based
- test context: BRAF D594G; DC50 at 50%: fitted conc. at Y=50
Reported DC50 values for a set of molecules

Query string: Any idea what DC50 was measured for CCCS(=O)(=O)Nc1cccc(-c2nc(C(C)(C)C)sc2-c2ccnc(Nc3ccc(C4CCN(CC[C@H]5CCN(c6ccc(C7CCC(=O)NC7=O)cn6)C5)CC4)cc3)n2)c1F (mixture of isomers) [Compound 173] ?
Result string: > 500 nM

Query string: Follow-up item: CCCS(=O)(=O)Nc1cccc(-c2nc(C)sc2-c2ccnc(Nc3ccc(N4CCN(CC5CCN(c6ccc([C@@H]7CCC(=O)NC7=O)cc6)CC5)CC4)cn3)n2)c1F [Compound 61]
Result string: > 500 nM

Query string: Follow-up item: CCCS(=O)(=O)Nc1cccc(-c2cn(-c3ccc(C4CCN(CC5CCN(c6ccc(C7CCC(=O)NC7=O)cc6F)CC5)CC4)cc3)nc2-c2ccncc2)c1F (racemic) [Compound 22]
Result string: > 500 nM

Query string: Follow-up item: CCCS(=O)(=O)Nc1cccc(-c2nc(C)sc2-c2ccnc(Nc3ccc(N4CCN(CC5CCN(c6ccc(C7CCC(=O)NC7=O)cn6)CC5)CC4)cn3)n2)c1F (racemic) [Compound 62]
Result string: > 500 nM

Query string: Follow-up item: CCCS(=O)(=O)Nc1cccc(-c2nc(C3CCC4(CC3)CN(C(=O)C3CCN(c5ccc6c(c5)C(=O)N(C5CCC(=O)NC5=O)C6=O)CC3)C4)sc2-c2ccnc(N)n2)c1F (racemic) [Compound 244]
Result string: < 10 nM

Query string: Follow-up item: CCCS(=O)(=O)Nc1cccc(-c2nc(C(C)(C)C)sc2-c2ccnc(Nc3ccc(C4CCN(C(=O)C5CCN(c6cc(C7CCC(=O)NC7=O)ccn6)CC5)CC4)cc3)n2)c1F (racemic) [Compound 163]
Result string: > 500 nM

Query string: Follow-up item: CCCS(=O)(=O)Nc1cccc(-c2nc(C(C)(C)C)sc2-c2ccnc(Nc3cnn(CC4CCN(C(=O)C[C@H]5CCN(c6ccc(C7CCC(=O)NC7=O)cc6)C5)CC4)c3)n2)c1F (mixture of isomers) [Compound 111]
Result string: 50 to 500 nM

Query string: Follow-up item: CCCS(=O)(=O)Nc1cccc(-c2nc(C3CCN(C(=O)C4(C)CCN(C(=O)C5CCN(c6ccc(C7CCC(=O)NC7=O)cn6)CC5)CC4)CC3)sc2-c2ccncn2)c1F (racemic) [Compound 181]
Result string: < 10 nM

Query string: Follow-up item: CCCS(=O)(=O)Nc1cccc(-c2nc(C(C)(C)C)sc2-c2ccnc(Nc3ccc(N4CCN(C(=O)CC5CCN(c6ccc(C7CCC(=O)NC7=O)cn6)CC5)CC4)c(F)c3)n2)c1F (racemic) [Compound 48]
Result string: > 500 nM

Query string: Follow-up item: CCCS(=O)(=O)Nc1cccc(-c2nc(C(C)(C)C)sc2-c2ccnc(Nc3cccc(OC4CCN(CC[C@H]5CCN(c6ccc(C7CCC(=O)NC7=O)cn6)C5)CC4)c3)n2)c1F (mixture of isomers) [Compound 69]
Result string: > 500 nM

Query string: Follow-up item: CCCS(=O)(=O)Nc1cccc(-c2nc(-c3ccc(C4CCN(CC5CCN(c6ccc([C@@H]7CCC(=O)NC7=O)cc6)CC5)CC4)cc3)sc2-c2ccnc(N)n2)c1F [Compound 192]
Result string: > 500 nM

Query string: Follow-up item: CCCS(=O)(=O)Nc1cccc(-c2nc(C(C)(C)C)sc2-c2ccnc(NCC3CCN(CC4CCN(c5ccc(C(=O)N[C@H]6CCC(=O)NC6=O)nc5)CC4)CC3)n2)c1F [Compound 147]
Result string: > 500 nM

Query string: Follow-up item: CCCS(=O)(=O)Nc1cccc(-c2nc(C(C)(C)C)sc2-c2ccnc(Nc3ccc(C4CCN(CC5CCN(c6ccc(C7CCC(=O)NC7=O)cc6)CC5)CC4)cc3)n2)c1F (racemic) [Compound 167]
Result string: > 500 nM

Query string: Follow-up item: CCCS(=O)(=O)Nc1cccc(-c2nc(C3CCN(C(=O)C4CCN(C(=O)C5CCN(c6ccc(C7CCC(=O)NC7=O)cn6)CC5)CC4)CC3)sc2-c2ccnc(N[C@H](C)CO)n2)c1F (mixture of isomers) [Compound 180]
Result string: < 10 nM

Query string: Follow-up item: CCCS(=O)(=O)Nc1cccc(-c2nc(C(C)(C)C)sc2-c2ccnc(Nc3ccc(N4CCN(CC5CCN(c6ccc([C@H]7CCC(=O)NC7=O)cc6)CC5)CC4)cc3)n2)c1F [Compound 59]
Result string: 10 to 50 nM
